Biological target: biotinylated wild-type menin and MLL-AF9 fusion protein (menin/MLL binding) (Homo sapiens, UniProt O00255)
Construct: MLL-AF9-FLAG: HEK293 cells, used as cleared lysate
Sequence (O00255 1-610): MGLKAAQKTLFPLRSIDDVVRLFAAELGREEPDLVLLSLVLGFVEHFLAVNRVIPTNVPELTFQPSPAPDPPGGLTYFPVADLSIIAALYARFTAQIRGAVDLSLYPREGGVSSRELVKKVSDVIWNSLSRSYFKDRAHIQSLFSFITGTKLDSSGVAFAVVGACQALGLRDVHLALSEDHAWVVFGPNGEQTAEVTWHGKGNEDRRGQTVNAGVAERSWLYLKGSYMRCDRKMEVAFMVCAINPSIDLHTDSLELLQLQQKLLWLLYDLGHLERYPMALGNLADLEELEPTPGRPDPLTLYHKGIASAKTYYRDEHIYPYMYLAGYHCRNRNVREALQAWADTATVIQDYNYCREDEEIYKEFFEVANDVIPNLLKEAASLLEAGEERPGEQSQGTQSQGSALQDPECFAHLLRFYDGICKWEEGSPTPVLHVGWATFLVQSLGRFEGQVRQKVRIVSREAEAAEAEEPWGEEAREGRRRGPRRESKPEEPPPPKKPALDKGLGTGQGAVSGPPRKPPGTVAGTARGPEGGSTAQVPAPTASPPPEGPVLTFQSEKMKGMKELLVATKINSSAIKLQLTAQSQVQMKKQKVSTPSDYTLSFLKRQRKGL
Assay: Assay 1: menin/MLL binding AlphaLISA assay, wild-type menin
Settings: Table 30; column head does not say wild-type or mutated menin
Measured attribute: IC50

# annotated cases, reported IC50 shown
{"Molecule": "N#Cc1ccc(-c2cc(F)ccc2Oc2cncnc2N2CCC3(CCN(c4nc(C(=O)O)cs4)C3)C2)c(C2CC2)c1 (stereo not shown)", "IC50": "≥ 1000 nM"}
{"Molecule": "CC(C)c1ccccc1-c1cc(F)ccc1Nc1cncnc1N1CC2(CN(CC3(O)CCCCC3)C2)C1", "IC50": "< 100 nM"}
{"Molecule": "CC(C)c1ccccc1-c1cc(F)ccc1Oc1cncnc1N1CC2(CC(NCc3ccc(C#N)cc3)CO2)C1 (stereo not shown)", "IC50": "< 100 nM"}

Please examine the following record next.
Record CCN(C(=O)c1cc(F)ccc1Oc1cncnc1N1CC2(CCN(C[C@H]3CC[C@H](NS(C)(=O)=O)CC3)CC2)C1)C(C)C . Reported IC50: < 100 nM

----------
Target: biotinylated wild-type menin and MLL-AF9 fusion protein (menin/MLL binding) (Homo sapiens, UniProt O00255)
Construct: MLL-AF9-FLAG: HEK293 cells, used as cleared lysate
Sequence (O00255 1-610): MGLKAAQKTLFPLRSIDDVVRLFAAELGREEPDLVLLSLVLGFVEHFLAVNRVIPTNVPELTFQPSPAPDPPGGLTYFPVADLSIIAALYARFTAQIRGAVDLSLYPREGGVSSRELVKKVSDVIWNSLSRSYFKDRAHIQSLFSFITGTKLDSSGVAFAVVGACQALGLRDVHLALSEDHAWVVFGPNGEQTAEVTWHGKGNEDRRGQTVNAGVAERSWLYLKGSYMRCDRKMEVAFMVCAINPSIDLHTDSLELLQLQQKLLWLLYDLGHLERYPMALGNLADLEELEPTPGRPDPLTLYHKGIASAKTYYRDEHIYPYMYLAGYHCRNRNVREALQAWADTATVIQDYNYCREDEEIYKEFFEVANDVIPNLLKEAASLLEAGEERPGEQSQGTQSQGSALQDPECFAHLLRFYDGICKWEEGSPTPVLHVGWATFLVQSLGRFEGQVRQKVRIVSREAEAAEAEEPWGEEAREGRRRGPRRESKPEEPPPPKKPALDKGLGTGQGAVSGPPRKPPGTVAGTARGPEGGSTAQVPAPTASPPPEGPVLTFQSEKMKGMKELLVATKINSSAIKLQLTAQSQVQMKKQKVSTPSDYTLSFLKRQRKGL
Assay: Assay 1: menin/MLL binding AlphaLISA assay, wild-type menin
Settings: Table 30; column head does not say wild-type or mutated menin
Listing of recorded IC50 by entry.

{"Compound": "CCc1ccccc1-c1cc(F)ccc1Nc1cncnc1N1CCC2(CC1)CN(CC(C)C)C2 [Example 247]", "IC50": "< 100 nM"}
{"Compound": "CC(C)c1ncncc1-c1cc(F)ccc1Oc1cncnc1N1CC2(CCN(C(=O)Cc3ccc(C#N)cc3)C2)C1 [Example 149]", "IC50": "< 100 nM"}
{"Compound": "CCn1c(=O)[nH]c2cc(CN3CCC4(CCN(c5ncncc5Oc5ccc(F)cc5-c5ccc(C#N)cc5C5CC5)C4)C3)ccc21 (stereo not drawn) [Example 191]", "IC50": "< 100 nM"}
{"Compound": "CC(C)N(C(=O)c1cc(F)ccc1Oc1cncnc1N1CCC2(CC(O)C(Cc3ccc4[nH]c(=O)[nH]c4c3)C2)C1)C(C)C (single isomer, unassigned) [Example 23A]", "IC50": "< 100 nM"}
{"Compound": "CC(C)N(C(=O)c1cc(F)ccc1Nc1cncnc1N1CCC2(CC1)CN(C[C@H]1CC[C@H](NC(=O)OC(C)(C)C)CC1)C2)C(C)C [Example 241]", "IC50": "< 100 nM"}
{"Compound": "CC(C)c1ncncc1-c1cc(F)ccc1Oc1cncnc1N1CC2(CC(NCC3CCCCC3)CO2)C1 (stereo not drawn) [Example 184]", "IC50": "< 100 nM"}
{"Compound": "CC(C)N(C(=O)c1cc(F)ccc1Oc1cncnc1N1CC2(CCN(CC3CCOCC3)C2)C1)C(C)C [Example 111]", "IC50": "< 100 nM"}
{"Compound": "N#Cc1ccc(-c2cc(F)ccc2Oc2cncnc2N2CCC3(CCN(Cc4ccc5[nH]c(=O)[nH]c5c4)C3)C2)c(C2CC2)c1 (single isomer, unassigned) [Example 42A]", "IC50": "< 100 nM"}

Record CC(C)N(C)C(=O)c1cc(F)ccc1Oc1cncnc1N1CC2(CC(NC3CCOCC3)C2)C1 [Example 92] . Reported IC50: < 100 nM
